System: UACC-62 melanoma
ASSAY SUMMARY: NCI-60 one-dose screen, 48 h (100 = growth as untreated, 0 = no growth, -100 = all killed)
CONDITION DETAILS: 10 µM unless noted
This is part of a sample that, as a whole, favours compounds with a hit. Of some 83,000 tested, about 20% had one in any assay. Calls of active or inactive are those of the source. Rule for the calls: active = growth percent below 10; inactive = the rest.
Please go through the items and note down their growth.

Cc1c(C(=O)NCc2ccccc2)[n+](=O)c2cc(F)ccc2n1[O-] :: 104% (inactive)
COc1cc(Cn2c(SCC(=O)Nc3cc(OC)c(OC)c(OC)c3)nc3ccccc3c2=O)cc(OC)c1OC :: 84.4% (inactive)

// for each compound in input: emit growth
1. Nc1c(C(=O)Nc2cccc(C(F)(F)F)c2)sc2nc3c(cc12)C(O)CCC3 (centres undefined)
2. Cc1cc(Nc2nc(-c3ccncc3)nc3ccccc23)n[nH]1
3. Cc1cc2c(C(C)C)c(O)c(O)c(C=NCCCCC(=O)O)c2c(O)c1-c1c(C)cc2c(C(C)C)c(O)c(O)c(C=NCCCCC(=O)O)c2c1O
4. CCC1CCc2nc3sc(C(=O)Nc4cccc(C)c4)c(N)c3cc2C1 (centres undefined)
5. Nc1c(C(=O)Nc2cccc([N+](=O)[O-])c2)sc2nc3c(cc12)C(O)CCC3 (centres undefined)
6. Nc1c(C(=O)Nc2cccc(Cl)c2Cl)sc2nc3c(cc12)C(=O)CCC3

1: 41.4% (inactive); 2: 55.3% (inactive); 3: 59.2% (inactive); 4: 49.2% (inactive); 5: 47.3% (inactive); 6: 64.6% (inactive)

Entry COC(=O)c1ccc2nc(-c3cc4ccccc4n3C)n(CCCCOc3cc4c(cc3OC)C(=O)N3CCC[C@H]3C=N4)c2c1 , system UACC-62 melanoma: what growth was measured?
-95.9% (active)

----------
Please go through the items and note down their growth.
System: MALME-3M melanoma
ASSAY SUMMARY: NCI-60 one-dose screen, 48 h (100 = growth as untreated, 0 = no growth, -100 = all killed)
CONDITION DETAILS: 10 µM unless noted
This is part of a sample that, as a whole, favours compounds with a hit. Of some 83,000 tested, about 20% had one in any assay.
Numbers only, in %.

Some compounds with known growth results, for comparison:
C#CCN1C(=O)/C(=c2\sc3n(c2=O)C2C(NN=3)N(CC)C(=O)N2CC)c2ccccc21 (stereo not given) :: 43.6
COc1ccc(C2NC3=C(CCCC3)C(C#N)(C#N)C2(C#N)C#N)cc1 (stereo not given) :: 71.6
CCc1cccc(C)c1NC(=O)c1sc2nc3c(cc2c1N)C(=O)CCC3 :: 45.1

// for each compound in input: emit growth
1. O=C1N=C(c2c(-c3[nH]c(=O)c4ccc(Br)cc4c3O)c(O)c3ccccc3c2O)C(=O)c2cc(Br)ccc21
2. CC(C)C[C@H](NC(=O)[C@@H](Cc1ccccc1)n1ccc(Nc2ccccc2)cc1=O)B(O)O

1: -74.3; 2: -39.1

----------
Please go through the items and note down their growth.
System: 786-0 renal
ASSAY SUMMARY: NCI-60 one-dose screen, 48 h (100 = growth as untreated, 0 = no growth, -100 = all killed)
CONDITION DETAILS: 10 µM unless noted
The panel holds about 83,000 compounds, 20% with a hit somewhere; the sample as a whole holds those more often. Calls of active or inactive are those of the source. The calls were made as follows: active = growth percent below 10; inactive = the rest.

Clc1ccc(-c2nc(-c3ccco3)cn3ccnc23)cc1 :: -41.1% (active)
COc1ccc(/C=N/NC(=O)Cn2c(Cc3cccc4ccccc34)nc3ccccc32)cc1 :: 102% (inactive)
CC/C=C\C[C@H]1C/C=C2/C(=O)C(Cl)=C[C@@H]2C/C=C\CCCC(=O)O1 :: -80.7% (active)
COc1cc(NCCCN=C(N)NC(N)=NC(C)C)c2ncccc2c1 :: 98.8% (inactive)

// for each molecule in input: emit growth
1. COc1cc(NC(=O)c2cc3ccccc3nc2Nc2ccc(F)cc2)cc(OC)c1OC
2. CS(=O)(=O)N(c1cc(-c2ccc3ncnc(Nc4cccc(Cl)c4)c3c2)cnc1Cl)S(C)(=O)=O
3. c1cc(-c2ccc3c(c2)OCO3)n2nccc2n1
4. C=C1C(=O)O[C@H]2[C@H](O)[C@@H](C)CCC/C(C)=C/CC[C@@]3(C)O[C@@H]3C[C@@H]12
5. N#Cc1ncc(-c2ccc(F)c(F)c2F)c(NC2CCCCCC2)n1

1. 53.5% (inactive)
2. 17.5% (inactive)
3. 101% (inactive)
4. 93.7% (inactive)
5. 87.1% (inactive)

// lookup growth for Cc1c(C(=O)NCc2ccccc2)[n+](=O)c2cc(F)ccc2n1[O-]
101% (inactive)
